measurement.notes: qHTS for Inhibitors of the Functional Ribonucleoprotein Complex (vRNP) of Lassa (LASV) Arenavirus: Viability assay - alamar blue signal for LASV Primary Screen (AID 1347083); note: nearly all actives have a fitted effect of over 80% in size
condition.details: cell viability, alamar blue fluorescence (LASV minigenome counter-screen); series mostly up to 57.5 µM
Results filed as inconclusive are left out. Active and inactive are the calls of the source. Calls come from the whole dose curve; tested in HEK293 reporter line.
Possible outcomes: 1 (active), 0 (inactive)

>  <compound>
C=CC(C)=C[C@@]1(C)SC(=O)C(C)=C1O

>  <category>
0

$$$$
>  <compound>
O=C(c1ccc(F)cc1)N1CCC[C@H](c2nc(-c3ccc(F)cc3)no2)C1

>  <category>
0

$$$$
>  <compound>
COC(=O)c1cc(=O)cc(C(=O)OC)o1

>  <category>
0

$$$$
>  <compound>
O=C(O)CCC/C=C\C[C@@H]1[C@@H](/C=C/[C@H](O)C2Cc3ccccc3C2)[C@@H](F)C[C@@H]1O

>  <category>
0

$$$$
>  <compound>
CC(=O)c1ccc[nH]1

>  <category>
0

$$$$
>  <compound>
Cn1c2c(c(=O)c3ccccc31)CCC(C)(C)O2

>  <category>
0

$$$$
>  <compound>
O=C(c1ccccc1)N1CCCCC1

>  <category>
0

$$$$
>  <compound>
CC[C@H]1OC(=O)[C@H](C)[C@@H](O[C@H]2C[C@@](C)(OC)[C@@H](O)[C@H](C)O2)[C@H](C)[C@@H](O[C@@H]2O[C@H](C)C[C@H](N(C)C)[C@H]2O)[C@](C)(O)C[C@H](C)C(=NOCOCCOC)[C@H](C)[C@@H](O)[C@]1(C)O

>  <category>
0

$$$$
>  <compound>
COc1ccc(C2Sc3ccccc3N(CCN(C)C)C(=O)C2OC(C)=O)cc1 (stereo not given)

>  <category>
0

$$$$
>  <compound>
COc1cc(OC)cc(-c2ccc3ncc4ccc(=O)n(-c5ccc(N6CCNCC6)c(C(F)(F)F)c5)c4c3c2)c1

>  <category>
1

$$$$
>  <compound>
C[C@@H]1CC[C@@]2(OC1)OC1CC3C4CC=C5CC(O)CCC5(C)C4CCC3(C)C1[C@@H]2C (stereo not given in full)

>  <category>
0

$$$$
>  <compound>
CC(C)NC[C@H](O)c1ccc(O)c(O)c1

>  <category>
0

$$$$
>  <compound>
Cn1c(=O)c(-c2c(Cl)cccc2Cl)cc2cnc(Nc3cccc(C(=O)O)c3)nc21

>  <category>
0

$$$$
>  <compound>
O=C(O)CCc1ccccc1

>  <category>
0

$$$$
>  <compound>
CC1CCC(C(=O)N(c2cc(C#CC(C)(C)C)sc2C(=O)O)C2CCC(O)CC2)CC1 (stereo not given)

>  <category>
0

$$$$
>  <compound>
C=C1CC23C[C@H]4[C@@H]5[C@@]6(C)C[C@H](OC(=O)c7ccccc7)[C@@H](OC(C)=O)[C@]57[C@@H]2[C@@H](OC(C)=O)[C@H]1[C@@H](O)[C@H]3[C@H]7N4C6

>  <category>
0

$$$$
>  <compound>
O=C(O)CCCC[C@@H]1CCSS1

>  <category>
0

$$$$
>  <compound>
CC(C)=CCCC(C)CCOC=O (stereo not given)

>  <category>
0

$$$$
>  <compound>
O=C1/C(=C\c2ccc(O)c(O)c2)Oc2c1ccc(O[C@@H]1O[C@H](CO)[C@@H](O)[C@H](O)[C@H]1O)c2O

>  <category>
0

$$$$
>  <compound>
COc1c2c(nc3occc13)C(CCC(C)(C)O)(OC)C(O)CC2 (stereo not given)

>  <category>
0

$$$$

###

measurement.notes: qHTS Assay for Lipid Storage Modulators (AID 1519); note: % is set by controls: 0 for no effect and ±100 for the full control effect
condition.details: Drosophila S3 cells, BODIPY lipid droplet/cell ratio, laser cytometry; at 57.5 µM (top of the series); cells loaded with oleic acid
Description: NIH Molecular Libraries Probe Production Centers Network [MLPCN] NIH Chemical Genomics Center [NCGC] Assay Submitter (PI): Beller, Mathias; Max-Planck-Institut fur Biophysikalische Chemie […] We dispensed 4 uL of cells at 1.25 x 10^6 cells/mL into LoBase Aurora COC 1,536-well plates (black walled, clear bottom) with a bottle-valve solenoid-based dispenser (Aurora) to obtain 5,000 cells/well. […] The ratio of the total intensity in PMT channel 1 over total intensity of channel 3 was also calculated. […]
Results filed as inconclusive are left out.
// values below are reported activity change, negative = inhibition
quantity.name: activity change, negative = inhibition (%)

>  <compound>
CCCN(CCC)[C@@H]1CCc2c(OC)cccc2[C@@H]1C

>  <units.text>
%

>  <measurement>
-0.226

$$$$
>  <compound>
C[C@H](N)Cc1c[nH]c2ccc(O)cc12

>  <units.text>
%

>  <measurement>
0.648

$$$$
>  <compound>
Clc1ccc(COC(Cn2ccnc2)c2ccc(Cl)cc2Cl)c(Cl)c1 (stereo not given)

>  <units.text>
%

>  <measurement>
3.93

$$$$
>  <compound>
C=C(C)[C@H]1CN[C@H](C(=O)O)[C@@H]1CC(=O)O

>  <units.text>
%

>  <measurement>
2.85

$$$$
>  <compound>
CCN1C[C@]2(C)CC[C@H](O)[C@@]34C5C[C@@H]6[C@@H](OC)C[C@@](O)(C5[C@H]6O)[C@@H](CC23)[C@@H]14 (stereo not given in full)

>  <units.text>
%

>  <measurement>
1.68

$$$$
>  <compound>
CC(C)(C)NC[C@@H](O)COc1cccc2[nH]c(C#N)cc12

>  <units.text>
%

>  <measurement>
2.4

$$$$
>  <compound>
O=C(O)[C@H]1[C@H]2CN[C@H](C(=O)O)[C@H]21

>  <units.text>
%

>  <measurement>
-5.1

$$$$
>  <compound>
CCNC(=O)[C@@H]1O[C@@H](n2cnc3c(N)ncnc32)[C@H](O)[C@H]1O

>  <units.text>
%

>  <measurement>
0.939

$$$$
>  <compound>
C[C@@H](C(=O)OC1C[C@H]2CC[C@@H](C1)N2C)c1ccc(Br)cc1 (stereo not given in full)

>  <units.text>
%

>  <measurement>
2.43

$$$$
>  <compound>
N[C@H](Cc1o[nH]c(=O)c1Cl)C(=O)O

>  <units.text>
%

>  <measurement>
-0.357

$$$$

###

System: Zika virus NS2B-NS3 protease
measurement.notes: Primary screen GU AMC qHTS for Zika virus inhibitors (AID 1347154);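 note: 0% = no-inhibitor control and -100% = no-enzyme control; nearly all actives have a fitted effect of over 70% in size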
condition.details: Zika NS2B-NS3 unlinked protease, AMC fluorogenic substrate; series mostly up to 54.1 µM
Records with an inconclusive call do not appear. Calls of active or inactive are those of the source. Calls come from the whole dose curve; as a rule, active = well fitted inhibition curve with a large enough effect; inconclusive = small, poorly fitted or top-dose-only effect; inactive = flat fitted curve, though single readings scatter.

>  <molecule>
C[C@]12CCC3C(CC[C@H]4C[C@H](O)CC[C@]34C)[C@@H]1CC[C@@H]2C(=O)CO (stereo not given in full)

>  <activity change, negative = inhibition>
inactive

$$$$
>  <molecule>
COc1ccc(CCN)cc1O

>  <activity change, negative = inhibition>
inactive

$$$$
>  <molecule>
Cc1c(C(=O)c2ccc3ccccc3c2)c2cccc3c2n1[C@H](CN1CCOCC1)CO3

>  <activity change, negative = inhibition>
inactive

$$$$
>  <molecule>
COc1ccc(CNC(=O)/C=C\c2ccc3[nH]cc(CCN(C)C)c3c2)cc1

>  <activity change, negative = inhibition>
inactive

$$$$
>  <molecule>
COC[C@H]([C@@H](O)[C@@H](O)C(=O)NCC[C@@H](C)c1nc(/C=C/C[C@H]2OC3(C[C@H](O)[C@H]2C)OC([C@@H](C[C@@H](O)[C@@H](C)[C@@H](O)[C@@H](C)/C=C(C)/C(C)=C/C=C/C(C)=C\C#N)OC)[C@@H](OP(=O)(O)O)C3(C)C)co1)N(C)C (stereo not given in full)

>  <activity change, negative = inhibition>
9.25% [at 4.99 µM] (inactive)

$$$$

###

System: HACAT
measurement.notes: qHTS assay to identify novel small-molecules to repurpose for Merkel cell carcinoma treatment (AID 1296009); note: nearly all actives have a fitted effect of over 60% in size
condition.details: MCC and control cell lines, CellTiter-Glo viability, 72 h; at 44.8 µM (top of the series) unless noted
Text: MCC is a rare and aggressive neuroendocrine skin cancer with limited treatment options. Approximately 80% of MCCs have the Merkel cell polyomavirus (MCPyV) DNA integrated into the host genome (virus-positive: VP-MCC) and viral oncogenes drive oncogenesis. The remaining MCCs are virus-negative (VN-MCC) and are caused by UV mutagenesis. […] Using cell viability as a readout (CellTiter-Glo assay) we found both overlapping and distinct drugs that can be repurposed for the treatment of VP-MCC and VN-MCC. […]
Results filed as inconclusive are left out. Activity calls are given as the source filed them. Calls follow the shape of the dose curve; as a rule, active = well fitted inhibition curve with a large enough effect; inconclusive = small, poorly fitted or top-dose-only effect; inactive = flat fitted curve, though single readings scatter. Where a SMILES comes first, the peptide text is derived from it. [ ]: non-standard residue; d: D form. The star is where a group is joined. Dolaproine = CO[C@@H]([C@@H]1CCCN1)[C@@H](C)C(=O)O; Dil = CC[C@H](C)[C@H](NC)[C@@H](CC(=O)O)OC; Doe = c1ccc(C[C@H](N*)c2nccs2)cc1; Aib = CC(C)(N)C(=O)O

>  <compound>
NCCCCCNC1(c2ccccc2)CCCCC1

>  <outcome>
inactive

$$$$
>  <compound>
C[C@@H]1[C@H](O)[C@@H](C)/C=C/C=C/CC/C=C/C=C/C=C/C=C/[C@H](O[C@H]2O[C@@H](C)[C@H](O)[C@@H](N)[C@H]2O)C[C@@H]2O[C@](O)(C[C@@H](O)[C@H](O)CC[C@@H](O)C[C@@H](O)C[C@@H](O)CC(=O)O[C@H]1C)C[C@H](O)[C@H]2C(=O)O

>  <outcome>
inactive [at 17.4 µM]

$$$$
>  <compound>
COCC(C(=O)OC1CC2CCC(C1)N2C)c1ccccc1 (stereo unspecified)

>  <outcome>
inactive

$$$$
>  <compound>
C[C@]12CC[C@@H](O)C[C@@H]1CC[C@@H]1[C@@H]2CC[C@]2(C)C(=O)[C@@H](Br)C[C@@H]12

>  <outcome>
inactive

$$$$
>  <compound>
CCCN(CCC)[C@@H]1CCc2ccc3[nH]c(C#N)cc3c2C1

>  <outcome>
inactive

$$$$
>  <compound>
CC[C@H](C)[C@@H]([C@@H](CC(=O)N1CCC[C@H]1[C@H](OC)[C@@H](C)C(=O)N[C@@H](Cc1ccccc1)c1nccs1)OC)N(C)C(=O)[C@@H](NC(=O)C(C)(C)N)C(C)C (H-[Aib]V[Dil][Dolaproine]-Doe)

>  <outcome>
inactive

$$$$
>  <compound>
O=C(N1CCCCC1Cc1ccccc1)n1cc(-c2ccc(-c3ccccc3)cc2)nn1 (stereo unspecified)

>  <outcome>
inactive

$$$$
>  <compound>
CC[C@H]1C2CC3[C@@H]4N(C)c5ccccc5[C@]45C[C@@H]([C@H]2[C@H]5O)N3[C@H]1O

>  <outcome>
inactive

$$$$
>  <compound>
CC1=CC2(O)/C=C/C(C)(O)C(O)C(O)/C=C/C(=O)OC23C(=O)NC(CC(C)C)C3C1C (stereo unspecified)

>  <outcome>
inactive [at 17.4 µM]

$$$$
>  <compound>
COC(=O)[C@@]1(C)C(=O)C=C[C@]2(C)c3c(O)cc(C(C)C)cc3[C@H](O)[C@@H](OC(C)=O)C12 (stereo partly specified)

>  <outcome>
inactive [at 17.4 µM]

$$$$
